// provenance: patent US9243281B2

# testedSystem: p70 (NAMPT) (Homo sapiens)
# Construct: endogenous in cells; host or cells: H2122 lung cancer cells
# Sequence (P43490 whole entry): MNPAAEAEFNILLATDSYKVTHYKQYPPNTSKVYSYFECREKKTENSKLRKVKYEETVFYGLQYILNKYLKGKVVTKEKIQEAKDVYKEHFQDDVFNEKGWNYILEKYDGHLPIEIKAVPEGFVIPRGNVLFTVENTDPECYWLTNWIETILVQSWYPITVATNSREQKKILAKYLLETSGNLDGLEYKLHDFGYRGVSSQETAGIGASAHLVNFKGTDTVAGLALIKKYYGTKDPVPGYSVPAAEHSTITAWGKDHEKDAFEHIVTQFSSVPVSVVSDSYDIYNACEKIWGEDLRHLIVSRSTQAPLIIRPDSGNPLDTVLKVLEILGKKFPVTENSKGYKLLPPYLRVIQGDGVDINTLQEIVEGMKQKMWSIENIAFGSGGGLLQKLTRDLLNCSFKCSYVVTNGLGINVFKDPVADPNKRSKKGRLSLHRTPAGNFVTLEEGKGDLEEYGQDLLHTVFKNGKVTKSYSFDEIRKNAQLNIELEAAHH
# assayMethodText: binding competition for photo-crosslinking of P7C3-S326 to p70 in H2122 cells
# testSettings: 0.3 μM P7C3-S326 plus 5 μM competitor, p70 band intensity, P7C3-S326 alone compared with plus competitor, vehicle 1.0
The label is True for Binding competition below 2 and False for Binding competition equal to or exceeding 2.

compound	testedSystem	cat
Brc1ccc2[nH]c3ccccc3c2c1 [S236]	p70 (NAMPT) (Homo sapiens)	True
COc1cccc(NCC(O)Cn2c3ccc(C)cc3c3cc(Br)ccc32)c1 (stereo not drawn) [S14]	p70 (NAMPT) (Homo sapiens)	False
OC(COc1ccccc1)Cn1c2c(c3cc(Br)ccc31)CNCC2 (stereo not drawn) [S105]	p70 (NAMPT) (Homo sapiens)	True
[O-][S+](CC(O)Cn1c2ccc(Br)cc2c2cc(Br)ccc21)c1ccccc1 (stereo not drawn) [S27]	p70 (NAMPT) (Homo sapiens)	False
O=C(O)Cn1c2ccc(Br)cc2c2cc(C(=O)O)ccc21 [S239]	p70 (NAMPT) (Homo sapiens)	True
Oc1cccc(SCC(O)CC2c3ccc(Br)cc3-c3cc(Br)ccc32)c1 (stereo not drawn) [S91]	p70 (NAMPT) (Homo sapiens)	False
OC(CCNc1ccccc1)Cn1c2ccc(Br)cc2c2cc(Br)ccc21 (stereo not drawn) [S32]	p70 (NAMPT) (Homo sapiens)	False
Nc1cccc(SCC(O)Cn2c3ccc(Br)cc3c3cc(Br)ccc32)c1 (stereo not drawn) [S95]	p70 (NAMPT) (Homo sapiens)	False
COc1ccc(NCC(F)Cn2c3ccc(Br)cc3c3cc(Br)ccc32)cc1 (stereo not drawn) [S60]	p70 (NAMPT) (Homo sapiens)	True
COc1cccc(NCC(O)Cn2c3ccc(Br)cc3c3cc(Br)ccc32)n1 (stereo not drawn) [S188]	p70 (NAMPT) (Homo sapiens)	False
COC(=O)NC(=O)Cn1c2ccc(Br)cc2c2cc(Br)ccc21 [S234]	p70 (NAMPT) (Homo sapiens)	True
CC(C)(C)NCC(O)CN1c2ccccc2CCc2ccccc21 (stereo not drawn) [S145]	p70 (NAMPT) (Homo sapiens)	False
COc1cccc(N2CC(Cn3c4ccc(Br)cc4c4cc(Br)ccc43)OC2=O)c1 (stereo not drawn) [S12]	p70 (NAMPT) (Homo sapiens)	False
O=S(=O)(CC(O)Cn1c2ccc(Cl)cc2c2cc(Cl)ccc21)c1ccccc1 (stereo not drawn) [S52]	p70 (NAMPT) (Homo sapiens)	False
CNCC(F)CN1c2ccccc2CCc2ccccc21 (stereo not drawn) [S152]	p70 (NAMPT) (Homo sapiens)	True
O=S(=O)(CC(O)Cn1c2ccc(Br)cc2c2cc(Br)ccc21)c1ccc(OCCF)cc1 (stereo not drawn) [S156]	p70 (NAMPT) (Homo sapiens)	True
COc1cccc(NCC(C)(O)Cn2c3ccc(Br)cc3c3cc(Br)ccc32)c1 (stereo not drawn) [S54]	p70 (NAMPT) (Homo sapiens)	False
CCOC(=O)Cn1c2ccc(Br)cc2c2cc(Br)ccc21 [S164]	p70 (NAMPT) (Homo sapiens)	True
COc1cccc(NCC(O)Cn2c3ccc(Cl)cc3c3cc(Cl)ccc32)c1 (stereo not drawn) [S15]	p70 (NAMPT) (Homo sapiens)	False
NC(=O)c1ccc2c(c1)c1cc(Br)ccc1n2CC(=O)O [S238]	p70 (NAMPT) (Homo sapiens)	True
N#Cc1ccc2c(c1)c1cc(C#N)ccc1n2CC(O)COc1ccccc1 (stereo not drawn) [S111]	p70 (NAMPT) (Homo sapiens)	False
